test: Toxicity test, single tail vein administration, 3 days observation; type: in vivo, Charles River-strain SD male rats; conditions: rat, in vivo, iv; read-out: Doses with no change in general symptoms and autopsy
measured_attribute: NOAEL at 72 h

* O=C([O-])Cc1ccc(-c2ccccc2)cc1.[Na+] | ≥ 50 mg/kg
